test system: carbonyl reductase from Lactococcus lactis; experiment: CRLL activity assay (decrease of NADPH absorption); substrate table of the isolated carbonyl reductase; format: biochemical; settings: Substrate (20 mM); activity per protein (0.37, 5.5 or 6.6 mg/mL)
# binarize spec. Act. (U/mg): threshold 2 U/mg inclusive, high side Satisfied, low side Not satisfied

Past entries and their recorded results:
compound: CC(=O)CCC(C)=O
class: Satisfied

compound: CCC(=O)c1ccccc1
class: Not satisfied

compound: O=C1CCc2ccccc21
class: Not satisfied

compound: CCOC(=O)C(C)=O [ethyl pyruvate]
class: Satisfied

compound: CC(=O)CO [hydroxyacetone]
class: Satisfied

We now examine a further compound.
Is the recorded value of spec. Act. (U/mg) equal to or greater than 2 U/mg for this compound? CC(=O)CC(C)=O
Satisfied
